system: SK-MEL-28 melanoma; experiment: NCI-60 one-dose screen, 48 h (100 = growth as untreated, 0 = no growth, -100 = all killed); settings: 10 µM unless noted
About 83,000 compounds went through this panel and 20% of them were active in at least one assay; those are over-represented in the sample as a whole.
Decide using growth alone. Strictly below 60%: Fulfilled. Equal to or above 60%: Not fulfilled.

// known answers, use as guide
- molecule: "CN1CCC(CNc2ccc3ncc(-c4cccc(OC(F)(F)F)c4)n3n2)CC1"
  class name: "Fulfilled"
- molecule: "CC1=CC2c3oc(-c4ccccc4)c(C(=O)c4ccccc4)c3CNC2C=C1 (stereo unspecified)"
  class name: "Not fulfilled"

Okay, now this molecule:
Prompt: Lab note: confirm whether the reported growth for this molecule is below 60%, equality not counting. molecule: CCN1CCN(Cc2ccc(-c3cc4c(N[C@H](C)c5ccccc5)ncnc4[nH]3)cc2)CC1
Response: Fulfilled

----------
tested on: CCRF-CEM leukemia; experiment: NCI-60 one-dose screen, 48 h; conditions: 10 µM unless noted
The panel holds about 83,000 compounds, 20% with a hit somewhere; the sample as a whole holds those more often. Calls of active or inactive are those of the source. Rule for the calls: active = growth percent below 10; inactive = the rest.
Allowed answers: y (active), n (inactive)

A selection of reference data follows.
- molecule: "CC(=Nc1ccccc1)C1=C(O)C(Cc2ccccc2)NC1=O (centres undefined)"
  class name: "y"
- molecule: "COC(=O)c1[nH]cnc1/N=N/N(C)CCO"
  class name: "n"
- molecule: "CCCCCC(=O)OCc1ccc(Cl)c(Cl)c1"
  class name: "n"
- molecule: "CO[C@@H](C(=O)N1Cc2[nH]nc(NC(=O)c3ccc(N4CCN(C)CC4)cc3)c2C1)c1ccccc1"
  class name: "n"
- molecule: "NC(=O)N1N=C(c2ccc(Cl)cc2)CC1c1cn(-c2ccccc2)nc1-c1ccc(Cl)cc1 (centres undefined)"
  class name: "n"
- molecule: "Clc1nc(Cl)c2ncn(C/C=C\\Cn3cnc4c(Cl)nc(Cl)nc43)c2n1"
  class name: "y"
- molecule: "O=C(Nc1cnn2ccc(N3CCC[C@@H]3c3cc(F)ccc3F)nc12)N1CC[C@H](O)C1"
  class name: "n"
- molecule: "COc1cc(F)c(F)c(Nc2ccc(I)cc2F)c1NS(=O)(=O)C1(C[C@H](O)CO)CC1"
  class name: "n"

Please examine the following record next.
Prompt: Dear all, I need the recorded test outcome for COC(=O)[C@]12CC[C@@H](C)[C@H](C)[C@@H]1C1=CC[C@@H]3[C@@]4(C)C(C#N)=CC(C)=C4CC[C@@]3(C)[C@]1(C)CC2 , thank you.
Response: n

----------
system: LOX IMVI melanoma; assay: NCI-60 one-dose screen, 48 h (100 = growth as untreated, 0 = no growth, -100 = all killed); details: 10 µM unless noted
About 83,000 compounds went through this panel and 20% of them were active in at least one assay; those are over-represented in the sample as a whole.
hey, just use condition met if measured growth is less than 20%, otherwise condition not met

Worked examples, 3 compounds total:
- compound: "COC(=O)[C@]12CC[C@@H](C)[C@H](C)[C@@H]1C1=CC[C@@H]3[C@@]4(C)C(C=O)=C[C@@](C)(COS(C)(=O)=O)C4=CC[C@@]3(C)[C@]1(C)CC2"
  target system: "LOX IMVI melanoma"
  class name: "condition met"
- compound: "COc1cc(Nc2ncc3c(n2)-c2ccc(Cl)cc2C(c2c(F)cccc2OC)=NC3)ccc1C(=O)O"
  target system: "LOX IMVI melanoma"
  class name: "condition not met"
- compound: "CNC(=O)CN1CCC(Oc2cc3c(Nc4cccc(Cl)c4F)ncnc3cc2OC)CC1"
  target system: "LOX IMVI melanoma"
  class name: "condition not met"

Lab note: next compound to report on.
Prompt: Answer whether the compound NC1(C(=O)N[C@@H](CCO)c2ccc(Cl)cc2)CCN(c2ncnc3[nH]ccc23)CC1 has growth strictly less than 20%
Response: condition not met
